Assay: Cytotoxicity assay (CellTiter-Glo) on normal human dermal fibroblasts
Format: cell-based
Conditions: normal human dermal fibroblasts (NHDF), 10 μM, untreated control = 100%, read-out: NHDF Viability 10 μM
Documented viability at 72 h, 10 µM across a set of compounds
Give just the number in %; leave the unit off.

Guide cases for viability at 72 h, 10 µM, answers given:
[[record]]
compound = "O=C(O[C@H]1CCNC1)[C@@H]1[C@H]2C[C@H]3c4[nH]c5ccccc5c4CCN3C[C@@H]2CC[C@@H]1O [Compound 4l]"
metric = "viability at 72 h, 10 µM"
value_units = "%"
data_value = 94

[[record]]
compound = "N[C@H]1C[C@@H](OC(=O)[C@@H]2[C@H]3C[C@H]4c5[nH]c6ccccc6c5CCN4C[C@@H]3CC[C@@H]2O)C1 [Compound 4o]"
metric = "viability at 72 h, 10 µM"
value_units = "%"
data_value = 86

[[record]]
compound = "COC(=O)[C@@H]1[C@H]2C[C@H]3c4[nH]c5ccccc5c4CCN3C[C@@H]2CC[C@@H]1O [Compound 1, Yohimbine, reference compound]"
metric = "viability at 72 h, 10 µM"
value_units = "%"
data_value = 105

[[record]]
compound = "O=C(OC[C@H]1CCCN1)[C@@H]1[C@H]2C[C@H]3c4[nH]c5ccccc5c4CCN3C[C@@H]2CC[C@@H]1O [Compound 4a]"
metric = "viability at 72 h, 10 µM"
value_units = "%"
data_value = 106


In: Supply reported viability at 72 h, 10 µM belonging to this compound: CN1CC[C@H](OC(=O)[C@@H]2[C@H]3C[C@H]4c5[nH]c6ccccc6c5CCN4C[C@@H]3CC[C@@H]2O)C1 [Compound 4p]
Out: 80

In: Supply reported viability at 72 h, 10 µM belonging to this compound: CCOC(=O)[C@@H]1[C@H]2C[C@H]3c4[nH]c5ccccc5c4CCN3C[C@@H]2CC[C@@H]1O [Compound 3a]
Out: 108
